Molecular target: SMARCA4 (Homo sapiens)
Construct: SMARCA4-HiBiT knock-in Hela monoclonal cell (CS3023226) were purchased from Promega; host or cells: HeLa (CRISPR HiBiT knock-in monoclonal line, heterozygous)
Sequence (P51532 whole entry): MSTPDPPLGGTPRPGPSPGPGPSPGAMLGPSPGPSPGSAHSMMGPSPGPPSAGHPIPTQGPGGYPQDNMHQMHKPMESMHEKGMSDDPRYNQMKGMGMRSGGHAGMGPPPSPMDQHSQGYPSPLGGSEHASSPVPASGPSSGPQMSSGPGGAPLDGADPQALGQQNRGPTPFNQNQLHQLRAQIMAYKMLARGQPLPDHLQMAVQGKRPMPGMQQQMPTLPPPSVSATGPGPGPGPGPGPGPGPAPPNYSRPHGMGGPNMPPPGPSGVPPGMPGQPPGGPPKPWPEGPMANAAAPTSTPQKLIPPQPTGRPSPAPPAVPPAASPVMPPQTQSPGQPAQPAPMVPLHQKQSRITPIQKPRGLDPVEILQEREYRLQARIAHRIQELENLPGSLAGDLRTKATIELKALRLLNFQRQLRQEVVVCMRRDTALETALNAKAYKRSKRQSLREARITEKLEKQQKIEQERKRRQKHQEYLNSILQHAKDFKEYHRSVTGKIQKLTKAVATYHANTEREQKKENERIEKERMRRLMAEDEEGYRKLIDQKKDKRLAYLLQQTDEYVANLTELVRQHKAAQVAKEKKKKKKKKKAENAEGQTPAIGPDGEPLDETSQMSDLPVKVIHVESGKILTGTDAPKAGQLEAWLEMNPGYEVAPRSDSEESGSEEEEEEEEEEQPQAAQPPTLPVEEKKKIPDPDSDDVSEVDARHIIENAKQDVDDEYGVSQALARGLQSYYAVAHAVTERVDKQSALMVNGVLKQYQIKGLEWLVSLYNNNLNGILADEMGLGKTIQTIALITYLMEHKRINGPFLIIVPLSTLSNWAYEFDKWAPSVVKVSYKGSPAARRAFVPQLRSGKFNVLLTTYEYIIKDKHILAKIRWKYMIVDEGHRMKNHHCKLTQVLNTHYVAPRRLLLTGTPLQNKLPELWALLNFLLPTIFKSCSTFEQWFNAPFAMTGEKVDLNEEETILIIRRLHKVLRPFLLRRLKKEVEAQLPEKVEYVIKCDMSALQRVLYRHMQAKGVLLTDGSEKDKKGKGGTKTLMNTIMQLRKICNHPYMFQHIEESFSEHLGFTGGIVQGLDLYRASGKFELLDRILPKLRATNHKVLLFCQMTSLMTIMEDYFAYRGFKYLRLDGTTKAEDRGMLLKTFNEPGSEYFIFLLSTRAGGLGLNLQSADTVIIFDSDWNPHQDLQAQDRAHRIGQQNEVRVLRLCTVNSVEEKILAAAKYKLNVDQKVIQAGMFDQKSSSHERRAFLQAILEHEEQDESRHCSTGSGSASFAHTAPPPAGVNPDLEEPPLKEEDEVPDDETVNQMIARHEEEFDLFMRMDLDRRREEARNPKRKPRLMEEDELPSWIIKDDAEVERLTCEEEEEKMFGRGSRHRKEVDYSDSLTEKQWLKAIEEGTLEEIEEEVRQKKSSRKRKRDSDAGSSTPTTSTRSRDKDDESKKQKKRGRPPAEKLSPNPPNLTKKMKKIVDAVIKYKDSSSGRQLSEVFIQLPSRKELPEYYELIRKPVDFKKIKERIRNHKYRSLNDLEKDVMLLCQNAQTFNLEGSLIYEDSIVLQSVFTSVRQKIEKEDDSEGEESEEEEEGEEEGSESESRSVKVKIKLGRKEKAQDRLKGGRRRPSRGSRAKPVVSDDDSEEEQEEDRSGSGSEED
Assay: SMARCA4 HiBiT degradation assay in HeLa cells
Type: cell-based
Conditions: HeLa, 18 hours
Quick reference for Dmax among some compounds
ASSAY_METRIC: Dmax

# COMPOUND, ASSAY_METRIC, RESULT
rows = [
    ("CCC12CNc3nnc(-c4cccc(Cl)c4O)cc3N1CCN(C(=O)N1CCN(CC3CCN(c4ccc5c(c4)C(=O)N([C@H]4CCC(=O)NC4=O)C5)CC3)CC1(C)C)C2 (single isomer, unassigned) [Example 76]", "Dmax", "50 to 75%"),
    ("O=C1CCC(N2Cc3cc(N4CCO[C@@H](CN5CC[C@H](CN6CCN7c8cc(-c9cc(F)cc(F)c9O)nnc8NC[C@H]7C6)[C@@H](F)C5)C4)ccc3C2=O)C(=O)N1 (stereo partly shown) [Example 51]", "Dmax", "< 50%"),
    ("C[C@@H]1CN(CC2CCN(c3ccc4c(c3)C(=O)N(C3CCC(=O)NC3=O)C4)CC2)C[C@H](C)N1C(=O)N1CCN2c3cc(-c4cc(F)cc(F)c4O)nnc3NCC2(C)C1 (single isomer, unassigned) [Example 34]", "Dmax", "> 75%"),
    ("C[C@@H]1CN(CC2CCN(c3ccc4c(c3)C(=O)N(C3CCC(=O)NC3=O)C4)CC2)[C@@H](C)CN1C(=O)N1CCN2c3cc(-c4cccc(F)c4O)nnc3NCC2(C)C1 (stereo partly shown) [Example 57]", "Dmax", "< 50%"),
    ("CC12CNc3nnc(-c4cccc(F)c4O)cc3N1CCN(C[C@H]1CC[C@H](CN3CCN(c4ccc5c(c4)C(=O)N(C4CCC(=O)NC4=O)C5)CC3)CC1)C2 (single isomer, unassigned) [Example 115]", "Dmax", "50 to 75%"),
    ("C[C@@H]1CN(CC2CN(c3ccc4c(c3)C(=O)N(C3CCC(=O)NC3=O)C4)C2)C[C@H](C)N1C(=O)N1CCN2c3cc(-c4cccc(F)c4O)nnc3NC[C@H]2C1 (stereo partly shown) [Example 2]", "Dmax", "< 50%"),
    ("C[C@@H]1CN(CC2CCN(c3ccc4c(c3)C(=O)N(C3CCC(=O)NC3=O)C4)CC2)C[C@@H](C)N1C(=O)N1CCN2c3cc(-c4cc(F)cc(F)c4O)nnc3NCC2(C)C1 (single isomer, unassigned) [Example 28]", "Dmax", "< 50%"),
]

###

Biological target: SMARCA4 (Homo sapiens)
Construct: SMARCA4-HiBiT knock-in Hela monoclonal cell (CS3023226) were purchased from Promega; host or cells: HeLa (CRISPR HiBiT knock-in monoclonal line, heterozygous)
Experiment: SMARCA4 HiBiT degradation assay in HeLa cells
Type: cell-based
Details: 18 hours

# MOLECULE, DC50
rows = [
    ("C[C@H]1CN2c3cc(-c4cccc(F)c4O)nnc3NC[C@H]2CN1C(=O)N1CCN(CC2CCN(c3ccc4c(c3)C(=O)N(C3CCC(=O)NC3=O)C4)CC2)CC1(C)C (stereo partly drawn) [Example 4]", "< 100 nM"),
    ("C[C@@H]1CN(CC2CCN(c3ccc4c(c3)C(=O)N(C3CCC(=O)NC3=O)C4)CC2)C[C@@H](C)N1C(=O)N1CCN2c3cc(-c4cc(F)cc(F)c4O)nnc3NCC2(C)C1 (single isomer, unassigned) [Example 28]", "< 100 nM"),
    ("CC1(C)CC(CN2CCN(c3ccc4c(c3)C(=O)N(C3CCC(=O)NC3=O)C4)CC2)CCN1C(=O)N1CCN2c3cc(-c4cccc(F)c4O)nnc3NC[C@H]2C1 (stereo partly drawn) [Example 122]", "< 100 nM"),
]
